B1: SAT2 (parent)
chain: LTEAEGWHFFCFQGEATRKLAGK

variants of: B1; assay: protein stability index of a GFP-peptide fusion (GPS, HEK-293T) (PSI 1-6); higher = more stable; settings: c terminus: native;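 note: lentivirally expressed fusions sorted by FACS into six bins by GFP to DsRed ratio, PSI derived from sequencing read proportions per bin multiplied by bin number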
The entries below are paired with their reported protein stability index.

[Q] Requested read-out: protein stability index. Entry: F10D
[A] 4.69

[Q] Now try E3N .
[A] 1.48

[Q] Now try K19E .
[A] 2.68

[Q] Now try E3P .
[A] 1.74

[Q] Now try E5T .
[A] 1.94

[Q] Now try C11R .
[A] 2.33

[Q] Now try F12K .
[A] 4.01

[Q] Now try K23D .
[A] 2.06

[Q] Now try A16D .
[A] 3.16

[Q] Now try Q13V .
[A] 1.9

[Q] Now try E3M .
[A] 2.56

[Q] Now try E5N .
[A] 1.73

[Q] Now try L1M .
[A] 2.34

[Q] Now try W7F .
[A] 2.22

[Q] Now try Q13C .
[A] 1.48

[Q] Now try T17L .
[A] 2.04

[Q] Now try G22P .
[A] 2.47
